Tested on: P388 leukemia ip, CD2F1 mice, survival T/C
Test: NCI In Vivo Anticancer Drug Screen. Data for tumor model P388 Leukemia (intraperitoneal) in CD2F1 (CDF1) mice
Details: endpoint: median survival time; dose: 100.0 mg/kg/injection; schedule: Q04DX003 (ip); vehicle: saline; higher = longer survival
Toxic doses and inconclusive results are not listed.
parameter-measured: T/C

Task: Given the compound N#CC(C=C(c1ccccc1)c1ccccc1)c1ccccc1 (centres undefined) , write its reported T/C.
Output: 98 % of control

Task: Given the compound O=C1NC(=O)C2=C1NCCN2 , write its reported T/C.
Output: 107 % of control

Task: Given the compound CC1COCCOCCOCC(C)OC(=O)CSCC(=O)O1 (centres undefined) , write its reported T/C.
Output: 100 % of control

Task: Given the compound C/C=C/CC(/C(C)=N\[N+](C)(C)C)c1ccccc1 (centres undefined) , write its reported T/C.
Output: 107 % of control

Task: Given the compound CC(C)(C)OC(=O)NC1CCC2CCCCC2C1 (centres undefined) , write its reported T/C.
Output: 100 % of control

Task: Given the compound Cc1ccc2c(Nc3ccc(NS(C)(=O)=O)cc3C)c3ccccc3nc2c1 , write its reported T/C.
Output: 95 % of control

Task: Given the compound NNC(=O)C(NC(=O)c1ccccc1)C(N)=O (centres undefined) , write its reported T/C.
Output: 95 % of control

Task: Given the compound O=C1OCCOCCOCCOCCOC1=O , write its reported T/C.
Output: 96 % of control

Task: Given the compound COc1cc2c(cc1O)-c1c(cnn1-c1ccc([N+](=O)[O-])cc1[N+](=O)[O-])CCC2 , write its reported T/C.
Output: 100 % of control

Task: Given the compound CN(C)P1(N(C)C)=NP(N(C)C)(N(C)C)=NP(N(C)C)(N(C)C)=N1 , write its reported T/C.
Output: 100 % of control

Task: Given the compound c1ccc(C[N+]23CC[N+](Cc4ccccc4)(CC2)CC3)cc1 , write its reported T/C.
Output: 108 % of control

Task: Given the compound N#CC(C#N)/C=C/[Se]c1ccccc1 , write its reported T/C.
Output: 104 % of control

Task: Given the compound Cc1cccc(C(=O)O)n1 , write its reported T/C.
Output: 104 % of control

Task: Given the compound CNC(=O)c1ccccc1NC(=O)CCC(=O)O , write its reported T/C.
Output: 100 % of control

----------
Test system: P388 leukemia ip, CD2F1 mice, survival T/C
Experiment: NCI In Vivo Anticancer Drug Screen. Data for tumor model P388 Leukemia (intraperitoneal) in CD2F1 (CDF1) mice
Settings: endpoint: median survival time; dose: 200.0 mg/kg/injection; schedule: Q01DX005 (ip); vehicle: saline; higher = longer survival
Inconclusive results and toxic doses are left out. Square brackets hold non-standard residues; d marks the D form. Peptide text beside a SMILES is read from it. * marks the point of attachment. ξ: configuration not given here. ξR = N=C(N)NCCCC(N)C(=O)O; Cbz = O=C(OCc1ccccc1)*
parameter-measured: T/C

Task: Given the compound NC(N)=NCCCC(N)C(=O)NCC(=O)NCC(=O)O (stereo not drawn) (H-[ξR]-Gly-Gly-OH) , write its reported T/C.
Output: 98 % of control

Task: Given the compound CCCCC(CC)C(=O)NCCCN(C)C (stereo unspecified) , write its reported T/C.
Output: 94 % of control

Task: Given the compound CC1(O)CCC(O)CC1CC(=O)O (stereo unspecified) , write its reported T/C.
Output: 105 % of control

Task: Given the compound CC(=NCc1ccccc1)NOCc1ccccc1 , write its reported T/C.
Output: 101 % of control

Task: Given the compound NC(N)=NCCCC(N)C(=O)N1CCCC1C(=O)O (stereo not drawn) (H-Arg-Pro-OH; configuration not given here) , write its reported T/C.
Output: 100 % of control

Task: Given the compound O=C(O)CC(C(=O)O)S(=O)CP(=O)(O)O (stereo unspecified) , write its reported T/C.
Output: 110 % of control

Task: Given the compound CCC(C)NC(=O)C(C)O (stereo unspecified) , write its reported T/C.
Output: 97 % of control

Task: Given the compound CC(C)NCC(O)c1ccc(O)c2ncccc12 (stereo unspecified) , write its reported T/C.
Output: 101 % of control

Task: Given the compound CN1CC2(C)OC3(CC2(C)N1C)N(C)N(C)CC3(C)O (stereo unspecified) , write its reported T/C.
Output: 101 % of control

Task: Given the compound C[N+](C)(C)CCC[N+]1(C)CC2CCCCC2C1 (stereo unspecified) , write its reported T/C.
Output: 101 % of control

Task: Given the compound COC(=O)C1CCCN1C(=O)C(CCCCNC(=O)OCc1ccccc1)NC(=O)OCc1ccccc1 (stereo unspecified) (Cbz-Lys(Cbz)-Pro-OMe; configuration not given here) , write its reported T/C.
Output: 105 % of control

----------
System: P388 leukemia ip, CD2F1 mice, survival T/C
Experiment: NCI In Vivo Anticancer Drug Screen. Data for tumor model P388 Leukemia (intraperitoneal) in CD2F1 (CDF1) mice
Conditions: endpoint: median survival time; dose: 100.0 mg/kg/injection; schedule: Q01DX009 (ip); vehicle: Klucel (hydroxypropylcellulose) (HPC); higher = longer survival
Toxic doses and inconclusive results are not listed.
parameter-measured: T/C

Task: Given the molecule CCOC(=O)c1ccccc1SC(C[N+](=O)[O-])c1ccccc1 (centres undefined) , write its reported T/C.
Output: 110 % of control

Task: Given the molecule CCN(CC)C(=O)C(F)C(F)(F)C(F)(F)C(F)(F)C(F)(F)C(F)(F)C(F)(F)F (centres undefined) , write its reported T/C.
Output: 101 % of control

Task: Given the molecule COc1ccc(/C=c2\sc3nc(-c4ccccc4)nn3c2=O)cc1 , write its reported T/C.
Output: 98 % of control

Task: Given the molecule NS(=O)(=O)c1ccc(NC(=O)CN(C(=O)C(F)(F)F)C2CCCC2)cc1 , write its reported T/C.
Output: 109 % of control

Task: Given the molecule CCOC(=O)c1cccc2c(=O)c3c([nH]c12)C(=O)c1c([nH]c2c(C(=O)OCC)cccc2c1=O)C3=O , write its reported T/C.
Output: 90 % of control

Task: Given the molecule Brc1nn[nH]n1 , write its reported T/C.
Output: 90 % of control

Task: Given the molecule COCN1C(=O)CN=C(c2ccccc2)c2cc([N+](=O)[O-])ccc21 , write its reported T/C.
Output: 101 % of control

Task: Given the molecule c1cnc2c(NC3CCCCC3)ncnc2n1 , write its reported T/C.
Output: 98 % of control

Task: Given the molecule O=[N+]([O-])c1ccc(-c2csc(NCC3CCCO3)n2)cc1 (centres undefined) , write its reported T/C.
Output: 100 % of control

----------
Tested on: P388 leukemia ip, CD2F1 mice, survival T/C
Test: NCI In Vivo Anticancer Drug Screen. Data for tumor model P388 Leukemia (intraperitoneal) in CD2F1 (CDF1) mice
Settings: endpoint: median survival time; dose: 200.0 mg/kg/injection; schedule: Q01DX009 (ip); vehicle: other; higher = longer survival
Inconclusive results and toxic doses are left out.
I'd appreciate it if you could supply T/C values for the items below.

Task: Given the compound CNC(=S)NNc1cccc([N+](=O)[O-])c1 , write its reported T/C.
Output: 92 % of control

Task: Given the compound COC1CC(NC(C)=O)C(OC(=O)c2ccccc2)C(CBr)O1 (stereo unspecified) , write its reported T/C.
Output: 97 % of control

Task: Given the compound CCOC(=O)/C(=C\c1cccc(OC)c1OC)CC(=O)O , write its reported T/C.
Output: 112 % of control

Task: Given the compound O=c1c(O)c(-c2cc(O)c(O)c(O)c2)oc2cc(O)cc(O)c12 , write its reported T/C.
Output: 98 % of control

Task: Given the compound Cc1ccc(S(=O)(=O)N/N=C/c2ccc(C(=O)O)cc2)cc1 , write its reported T/C.
Output: 95 % of control

Task: Given the compound COc1cc2c(=O)n3c4c(cccc4c2cc1OC)CC3 , write its reported T/C.
Output: 89 % of control

----------
I'd appreciate it if you could supply T/C values for the items below.
System: P388 leukemia ip, CD2F1 mice, survival T/C
Assay: NCI In Vivo Anticancer Drug Screen. Data for tumor model P388 Leukemia (intraperitoneal) in CD2F1 (CDF1) mice
Conditions: endpoint: median survival time; dose: 50.0 mg/kg/injection; schedule: Q01DX009 (ip); vehicle: Klucel (hydroxypropylcellulose) (HPC); higher = longer survival
Method: The antitumor activity of compounds was measured in mice bearing transplantable tumors. Survival or tumor size were measured and the results are expressed as the measurement made in the treated group (T) divided by the measurement made in the vehicle treated control group (C). The tumor model used in this assay is P388 Leukemia (intraperitoneal) in CD2F1 (CDF1) mice
Toxic doses and inconclusive results are not listed.

Task: Enter T/C (test system P388 leukemia ip, CD2F1 mice, survival T/C) for c1cnc2c(NC3CCCCC3)ncnc2n1
Output: 100 % of control

Task: Enter T/C (test system P388 leukemia ip, CD2F1 mice, survival T/C) for O=C(c1ccccc1)C12CCC(CC1)CC2
Output: 94 % of control

Task: Enter T/C (test system P388 leukemia ip, CD2F1 mice, survival T/C) for CCCCCCCCCCCC(=O)Nc1ncc([N+](=O)[O-])s1
Output: 101 % of control

Task: Enter T/C (test system P388 leukemia ip, CD2F1 mice, survival T/C) for O=C(c1ccccc1)C1OC1C(=O)c1ccccc1 (stereo unspecified)
Output: 95 % of control

Task: Enter T/C (test system P388 leukemia ip, CD2F1 mice, survival T/C) for CCOC(CN(C)C)C(Cl)(Cl)Cl (stereo unspecified)
Output: 103 % of control

Task: Enter T/C (test system P388 leukemia ip, CD2F1 mice, survival T/C) for CC1C=CCC(C)(C#N)C1 (stereo unspecified)
Output: 103 % of control

Task: Enter T/C (test system P388 leukemia ip, CD2F1 mice, survival T/C) for OCc1c(CO)c(C(F)(F)F)n2c1CCC2
Output: 104 % of control

Task: Enter T/C (test system P388 leukemia ip, CD2F1 mice, survival T/C) for O=S(=O)(c1ccc(NC(=S)NCc2ccco2)cc1)N1CCCCC1
Output: 88 % of control

Task: Enter T/C (test system P388 leukemia ip, CD2F1 mice, survival T/C) for COc1ccccc1NC(N)=S
Output: 98 % of control

Task: Enter T/C (test system P388 leukemia ip, CD2F1 mice, survival T/C) for COc1cc2c3cc1Oc1c(OC)c(OC)cc4c1C(Cc1ccc(cc1)Oc1cc(ccc1O)CC3N(C)CC2)N(C)CC4 (stereo unspecified)
Output: 94 % of control

Task: Enter T/C (test system P388 leukemia ip, CD2F1 mice, survival T/C) for c1ccc(-c2ccc(-c3ccccc3)cc2)cc1
Output: 98 % of control

Task: Enter T/C (test system P388 leukemia ip, CD2F1 mice, survival T/C) for Cn1c(=O)c2[nH]c(Cc3ccsc3)nc2n(C)c1=O
Output: 93 % of control

Task: Enter T/C (test system P388 leukemia ip, CD2F1 mice, survival T/C) for Brc1nn[nH]n1
Output: 101 % of control

Task: Enter T/C (test system P388 leukemia ip, CD2F1 mice, survival T/C) for NS(=O)(=O)c1ccc(NC(=S)S)cc1
Output: 107 % of control

Task: Enter T/C (test system P388 leukemia ip, CD2F1 mice, survival T/C) for CCOC(=O)NCNC(=O)OCC
Output: 100 % of control

Task: Enter T/C (test system P388 leukemia ip, CD2F1 mice, survival T/C) for O=C(NCc1ccncc1)Nc1ccc(Cc2ccc(NC(=O)NCc3ccncc3)cc2)cc1
Output: 105 % of control

Task: Enter T/C (test system P388 leukemia ip, CD2F1 mice, survival T/C) for CCC12Nc3ccccc3C(CC)(C1=O)C(c1ccccc1)=C2c1ccccc1 (stereo unspecified)
Output: 115 % of control

Task: Enter T/C (test system P388 leukemia ip, CD2F1 mice, survival T/C) for CCCCCOC(CN(C)C)C(Cl)(Cl)Cl (stereo unspecified)
Output: 100 % of control

Task: Enter T/C (test system P388 leukemia ip, CD2F1 mice, survival T/C) for O=C1c2ccccc2CC12OC2c1ccccc1 (stereo unspecified)
Output: 92 % of control

Task: Enter T/C (test system P388 leukemia ip, CD2F1 mice, survival T/C) for CSc1c(C(=O)O)cc(C(C)(C)C)cc1C(=O)O
Output: 91 % of control

Task: Enter T/C (test system P388 leukemia ip, CD2F1 mice, survival T/C) for CCOC(=O)C1=C(C)O/C(=C/C=C/c2ccccc2)C1=O
Output: 102 % of control

Task: Enter T/C (test system P388 leukemia ip, CD2F1 mice, survival T/C) for O=C(OCCCN1CCCC1)C(c1ccccc1)C1C=CCC1 (stereo unspecified)
Output: 101 % of control

Task: Enter T/C (test system P388 leukemia ip, CD2F1 mice, survival T/C) for Cc1ccc(C)c(NC(=O)Nc2ccccc2C(N)=O)c1
Output: 91 % of control

Task: Enter T/C (test system P388 leukemia ip, CD2F1 mice, survival T/C) for CCOC(=O)c1ccccc1SC(C[N+](=O)[O-])c1ccccc1 (stereo unspecified)
Output: 105 % of control

Task: Enter T/C (test system P388 leukemia ip, CD2F1 mice, survival T/C) for NC(=O)c1cc([N+](=O)[O-])cnc1Sc1ncn[nH]1
Output: 98 % of control

Task: Enter T/C (test system P388 leukemia ip, CD2F1 mice, survival T/C) for CCOC(=O)C1=C(C)NC(C)=C(C(=O)OCC)C1c1ccc(OC)cc1
Output: 91 % of control

Data origin: PubChem BioAssay AID330
